Reference source for all entries: PubChem BioAssay (NCATS)

Assay: Drug repurposing screens with cells derived from glioblastoma tumor samples (AID 1345199); note: % is set by controls: 0 for no effect and ±100 for the full control effect; nearly all actives have a fitted effect of over 40% in size
Details: GBM patient neurospheres viability, ATP luminescence, 48 h; at 45.9 µM (top of the series); tumour line D
Protocol: CD133+ cells were isolated from GBM patient biopsies and cultured as neurospheres. Neurospheres from four patients were used to screen the NCATS pharmaceutical collection (NPC) library of approved drugs and bioactive compounds. […] The neurospheres were incubated with drugs for 48 hours in 1536-well format, then assayed with an ATP content cell viability assay. […]
Records with an inconclusive call do not appear.
Recorded activity, negative = cell killing values for a group of compounds are listed next.
Report as a plain number; the unit % is understood.

Please review the following examples before continuing.
compound=CCCCCCOC(=O)c1cccnc1 meas_value=7.42
compound=COC1=C(OC)C(=O)C(C/C=C(\C)CC/C=C(\C)CC/C=C(\C)CC/C=C(\C)CC/C=C(\C)CC/C=C(\C)CC/C=C(\C)CC/C=C(\C)CC/C=C(\C)CCC=C(C)C)=C(C)C1=O meas_value=-1.65
compound=O=P(O)(O)O meas_value=-2.27
compound="CCCCCCCCCCCCCCCCCC(=O)OCC(C)O (stereo not given)" meas_value=-0.865

// moving on: another record for activity, negative = cell killing
// lookup activity, negative = cell killing for CC[C@H]1OC(=O)[C@H](C)[C@@H](O[C@H]2C[C@@](C)(OC)[C@@H](O)[C@H](C)O2)[C@H](C)[C@@H](O[C@@H]2O[C@H](C)C[C@H](N(C)C)[C@H]2O)[C@](C)(O)C[C@@H](C)CN(C)[C@H](C)[C@@H](O)[C@]1(C)O
-25.4

====

Test system: CP256
Assay: qHTS profiling for inhibitors of Plasmodium falciparum proliferation (AID 504749); note: nearly all actives have a fitted effect of over 60% in size
Conditions: P. falciparum in erythrocytes, SYBR Green DNA, 72 h; series mostly up to 28.7 µM
Records with an inconclusive call do not appear. Calls of active or inactive are those of the source. Calls follow the shape of the dose curve; as a rule, active = well fitted inhibition curve with a large enough effect; inconclusive = small, poorly fitted or top-dose-only effect; inactive = flat fitted curve, though single readings scatter.
Your response should consist of one outcome taken from t for active, f for inactive

Look over these answered cases.
compound="CC[C@H]1OC(=O)[C@H](C)[C@@H](O[C@H]2C[C@@](C)(OC)[C@@H](O)[C@H](C)O2)C(C)[C@@H](O[C@@H]2O[C@H](C)C[C@H](N(C)C)[C@@H]2O)[C@](C)(OC)C[C@@H](C)C(=O)[C@H](C)[C@@H](O)[C@]1(C)O (stereo not given in full)" group_label=t
compound=COC(=O)c1ccccc1O group_label=f

Entry C[C@H](CCC(=O)O)[C@H]1CC[C@H]2[C@@H]3CC[C@@H]4C[C@H](O)CC[C@]4(C)[C@H]3C[C@H](O)[C@]12C : call = ?
f

Same question for CC1(C)S[C@@H]2[C@H](NC(=O)C3(N)CCCCC3)C(=O)N2[C@H]1C(=O)O please.
f

Same question for CCOC(=O)C1=C(COCCN)NC(C)=C(C(=O)OC)C1c1ccccc1Cl (stereo not given) please.
f

Same question for O=C(OCc1ccccc1)c1ccc(O)cc1 please.
f

Same question for Cc1ncc(COP(=O)(O)O)c(CN)c1O please.
f

Same question for CO/N=C(\C(=O)N[C@@H]1C(=O)N2C(C(=O)[O-])=C(C[n+]3cccc4c3CCC4)CS[C@H]12)c1csc(N)n1 please.
f

====

Tested on: P94_40
Assay: qHTS profiling for inhibitors of Plasmodium falciparum proliferation (AID 504749); note: nearly all actives have a fitted effect of over 60% in size
Settings: P. falciparum in erythrocytes, SYBR Green DNA, 72 h; series mostly up to 28.7 µM
Experimental: NIH National Institute of Allergy and Infectious Diseases [NIAID] NIH Chemical Genomics Center [NCGC] […] Because mature erythrocytes lack DNA, only Plasmodium-derived DNA is detected. NCGC Assay Protocol Summary: The SYBR Green viability assay was adapted from a method described previously (Plouffe et al., 2008). […] The following morning, fluorescence intensity at 485(14) nm excitation and 535(25) nm emission wavelengths was measured on an EnVision (Perkin Elmer) plate reader. […]
Inconclusive results are not listed. The source made the active and inactive calls. The call rests on the fitted dose curve; in most records, active means well fitted inhibition curve with a large enough effect; inconclusive means small, poorly fitted or top-dose-only effect; inactive means flat fitted curve, though single readings scatter.
Your response should consist of one outcome taken from active, inactive

molecule=CO/N=C(/C(=O)N[C@@H]1C(=O)N2C(C(=O)O)=C(COC(N)=O)CS[C@H]12)c1ccco1 target_or_test_system=P94_40 group_label=inactive
molecule=F[Si-2](F)(F)(F)(F)F target_or_test_system=P94_40 group_label=inactive
molecule=O=C(NNCNNC(=O)c1ccncc1)c1ccncc1 target_or_test_system=P94_40 group_label=inactive
molecule=CC(C)O target_or_test_system=P94_40 group_label=inactive
molecule=Nc1ccc(N=Nc2ccccc2)c(N)n1 target_or_test_system=P94_40 group_label=inactive
molecule=CC(=O)[C@H]1CC[C@H]2[C@@H]3C=CC4=CC(=O)CC[C@@]4(C)[C@H]3CC[C@]12C target_or_test_system=P94_40 group_label=inactive
molecule=O=C(O)[C@H]1C(=CCO)O[C@H]2CC(=O)N12 target_or_test_system=P94_40 group_label=inactive
molecule=CC(=O)NCCCS(=O)(=O)O target_or_test_system=P94_40 group_label=inactive
molecule="CC1CC(OC(=O)C(O)c2ccccc2)CC(C)(C)C1 (stereo not given)" target_or_test_system=P94_40 group_label=inactive
molecule=CC(=O)Nc1ccc(OC(C)=O)cc1 target_or_test_system=P94_40 group_label=inactive

Entry COc1ccc2c(c1)OC(C)(C)C(c1ccccc1)C2c1ccc(OCCN2CCCC2)cc1 (stereo not given) : call = ?
active

Same question for NCC(O)CC(=O)O (stereo not given) please.
inactive

Same question for O=c1[nH]c(=O)n([C@H]2C[C@H](O)[C@@H](CO)O2)cc1/C=C/Br please.
inactive

Same question for Cc1cc(C(=O)NCCc2ccc(S(=O)(=O)NC(=O)NN3CCCCCC3)cc2)no1 please.
inactive

Same question for CCCCC please.
inactive

====

Test system: PC26
Experiment: qHTS profiling for inhibitors of Plasmodium falciparum proliferation (AID 504749); note: nearly all actives have a fitted effect of over 60% in size
Settings: P. falciparum in erythrocytes, SYBR Green DNA, 72 h; series mostly up to 28.7 µM
Records with an inconclusive call do not appear. Calls of active or inactive are those of the source. The call rests on the fitted dose curve; in most records, active means well fitted inhibition curve with a large enough effect; inconclusive means small, poorly fitted or top-dose-only effect; inactive means flat fitted curve, though single readings scatter.
Your response should consist of one outcome taken from active, inactive

compound=CN1C(=O)C[C@@H](C(=O)N[C@@H](Cc2cnc[nH]2)C(=O)N2CCC[C@H]2C(N)=O)NC1=O group_label=inactive
compound=OC/C=C/c1ccccc1 group_label=inactive

Okay, next one:
Entry COC(=O)[C@@H](N)CS : call = ?
inactive

====

Test system: CP269
Experiment: qHTS profiling for inhibitors of Plasmodium falciparum proliferation (AID 504749); note: nearly all actives have a fitted effect of over 60% in size
Conditions: P. falciparum in erythrocytes, SYBR Green DNA, 72 h; series mostly up to 28.7 µM
Results filed as inconclusive are left out. The source made the active and inactive calls. The call rests on the fitted dose curve; in most records, active means well fitted inhibition curve with a large enough effect; inconclusive means small, poorly fitted or top-dose-only effect; inactive means flat fitted curve, though single readings scatter.
Metric Name: outcome

compound=CCCCC/C=C\C/C=C\C/C=C\CCCCC(=O)O metric_name=outcome meas_value=inactive
compound="CC1CCC(NC(=O)N(CCCl)N=O)CC1 (stereo not given)" metric_name=outcome meas_value=inactive
compound=CCN(CC)CCC(=O)N1c2ccccc2Sc2ccc(C(F)(F)F)cc21 metric_name=outcome meas_value=inactive
compound=CCN(CC)C(=S)S metric_name=outcome meas_value=inactive

// moving on: another record for outcome
// lookup outcome for Nc1nc(=O)n([C@@H]2CS[C@H](CO)O2)cc1F
inactive

====

Test: qHTS profiling for inhibitors of Plasmodium falciparum proliferation (AID 504749); note: nearly all actives have a fitted effect of over 60% in size;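 for activity, negative = inhibition: 0% = DMSO vehicle and full inhibition = artemisinin control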
Details: P. falciparum in erythrocytes, SYBR Green DNA, 72 h; at 28.7 µM (top of the series); parasite line B
Records with an inconclusive call do not appear. The source made the active and inactive calls. Calls come from the whole dose curve; as a rule, active = well fitted inhibition curve with a large enough effect; inconclusive = small, poorly fitted or top-dose-only effect; inactive = flat fitted curve, though single readings scatter.
Metric Name: activity, negative = inhibition

compound=CCCCC meas_value="20.9% (inactive)"
compound=Cc1cccc(C)c1NC(=O)NC1=CCCN1C meas_value="1.38% (inactive)"
compound=CCCCCCCCCCCCCCCCCCCCCC(=O)Nc1ccn([C@@H]2O[C@H](CO)[C@@H](O)[C@@H]2O)c(=O)n1 meas_value="6.88% (inactive)"

// lookup activity, negative = inhibition for NCCO/C=C/[C@H](N)C(=O)O
15.6% (inactive)

Same question for CC1CCCCN1CCCOC(=O)c1ccccc1 (stereo not given) please.
9.27% (inactive)

Same question for CC(C)[C@@H](N)C(=O)O please.
12.2% (inactive)

Same question for CCOc1ccc(NC(=S)Nc2ccc(OCC)cc2)cc1 please.
-2.23% (inactive)

Same question for CCOC(=O)c1cc(-c2ccccc2)nc2ccc(C)cc12 please.
7.25% (inactive)

Same question for CCCCCCCCCCCCCC(=O)OCC(COP(=O)([O-])OCC[N+](C)(C)C)OC(=O)CCCCCCCCCCCCC (stereo not given) please.
-2.15% (inactive)

Same question for NCC[C@H](O)C(=O)N[C@@H]1C[C@H](N)[C@@H](O[C@H]2O[C@H](CN)CC[C@H]2N)[C@H](O)[C@H]1O[C@H]1O[C@H](CO)[C@@H](O)[C@H](N)[C@H]1O please.
9.77% (inactive)
